# system under test: human ether-à-go-go-related gene (hERG) potassium channel (human, UniProt Q12809)
# Sequence (Q12809 whole entry, looked up): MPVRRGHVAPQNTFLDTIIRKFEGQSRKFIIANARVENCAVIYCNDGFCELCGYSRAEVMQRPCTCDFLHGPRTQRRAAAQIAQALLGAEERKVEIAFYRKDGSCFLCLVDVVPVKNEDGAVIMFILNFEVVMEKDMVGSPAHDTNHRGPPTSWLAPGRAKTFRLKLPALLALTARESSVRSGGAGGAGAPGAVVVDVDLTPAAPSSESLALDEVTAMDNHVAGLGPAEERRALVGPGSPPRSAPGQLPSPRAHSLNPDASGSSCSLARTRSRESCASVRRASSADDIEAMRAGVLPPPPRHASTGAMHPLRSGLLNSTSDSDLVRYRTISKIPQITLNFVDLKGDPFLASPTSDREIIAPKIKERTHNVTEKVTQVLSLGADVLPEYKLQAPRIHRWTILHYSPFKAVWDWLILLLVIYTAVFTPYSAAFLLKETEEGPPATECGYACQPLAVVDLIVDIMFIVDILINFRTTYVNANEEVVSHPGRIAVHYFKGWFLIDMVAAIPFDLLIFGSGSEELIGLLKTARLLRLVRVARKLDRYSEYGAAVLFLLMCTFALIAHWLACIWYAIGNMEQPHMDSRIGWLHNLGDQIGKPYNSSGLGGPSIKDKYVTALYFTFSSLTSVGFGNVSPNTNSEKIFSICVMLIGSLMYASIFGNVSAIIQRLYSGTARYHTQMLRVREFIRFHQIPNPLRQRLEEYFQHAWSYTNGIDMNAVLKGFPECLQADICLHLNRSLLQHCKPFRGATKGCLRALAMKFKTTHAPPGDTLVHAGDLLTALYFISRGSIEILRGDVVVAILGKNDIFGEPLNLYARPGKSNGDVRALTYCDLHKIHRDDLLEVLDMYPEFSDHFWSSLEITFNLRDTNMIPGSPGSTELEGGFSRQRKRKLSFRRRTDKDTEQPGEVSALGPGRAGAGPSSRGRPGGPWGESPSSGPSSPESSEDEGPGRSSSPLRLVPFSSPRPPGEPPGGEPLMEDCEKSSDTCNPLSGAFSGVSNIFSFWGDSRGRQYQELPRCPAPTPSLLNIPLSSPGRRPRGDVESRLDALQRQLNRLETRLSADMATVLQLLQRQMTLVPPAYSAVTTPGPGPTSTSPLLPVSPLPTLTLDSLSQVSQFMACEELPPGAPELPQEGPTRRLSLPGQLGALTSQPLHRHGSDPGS
# test summary: primary screen, population patch clamp on CHO cells stably expressing hERG; higher = less effect of the substance
# Description: Briefly, Chinese hamster ovary (CHO) cells stably expressing the hERG channel were dislodged from tissue culture flasks and dispensed into PPC plates. […] During the recording, background leak currents were estimated by a 100 ms step to -80 mV from an initial holding potential of -70 mV and subtracted from the subsequent current measurement. The campaign was conducted in two phases using slight differences in recording protocol. […]
Hit rate of the full screen: of about 310,000 compounds, about 14,000 (4.5%) showed an effect of 50% or more. Effects have a minus sign here. Only a selection was taken, and strong results are over-represented in it overall.
Listed here: items and their measured hERG current change (%, negative = inhibition) at 10uM.
Record the value in %, omitting the unit from your answer.

CCOc1ccc(NC(=O)CN2CCN(S(=O)(=O)c3ccc(Cl)cc3)CC2)cc1: -9.26
COc1ccc(NC(=O)CN2CCN(S(=O)(=O)c3ccc(Cl)cc3)CC2)cc1: -79.7

Exercise: Can you look up the measured hERG current change (%, negative = inhibition) at 10uM of Cc1ccc(S(C)(=O)=NS(=O)(=O)c2cccc3nsnc23)cc1 (stereo not shown) for me?
Key: 7.47

Exercise: Another molecule: COc1ccc(NC(C)=O)cc1NC(=O)CN1CCN(S(=O)(=O)c2ccc(C(C)C)cc2)CC1
Key: -9.86

Exercise: Another molecule: Cc1ccc(NC(=O)C2(c3ccccc3)CCOCC2)c([N+](=O)[O-])c1
Key: -22.5

Exercise: Another molecule: Cc1ccc(N2C(=O)C(NC(=O)c3ccccc3F)(C(F)(F)F)C3=C2CC(C)(C)CC3=O)cc1 (stereo not shown)
Key: 6.43

Exercise: Another molecule: Cc1c(Cc2ccccc2)c(=O)oc2cc(OCC(=O)NCC(O)c3ccccc3)ccc12 (stereo not shown)
Key: 28.7

###

# system under test: human ether-à-go-go-related gene (hERG) potassium channel (human);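 note: peak tail current of the secondary pulse compared with the same well before compound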
# test summary: primary screen, population patch clamp on CHO cells stably expressing hERG; higher = less effect of the substance
# Experimental: Briefly, Chinese hamster ovary (CHO) cells stably expressing the hERG channel were dislodged from tissue culture flasks and dispensed into PPC plates. […] During the recording, background leak currents were estimated by a 100 ms step to -80 mV from an initial holding potential of -70 mV and subtracted from the subsequent current measurement. The campaign was conducted in two phases using slight differences in recording protocol. […]
The whole screen tested about 310,000 compounds, of which about 14,000 (4.5%) showed an effect of 50% or more. The effect is printed as a negative number. Many of the other results were omitted from the sample, so strong results are more common in it than they were.
Decision: hERG current change (%, negative = inhibition) at 10uM compared against -20%; not below it gives criterion met, below it gives criterion not met.

Examples with answers:
COc1ccc(CN2C3CCC2CC(NC(=O)c2cccc(F)c2)C3)cc1 (centres unmarked): criterion not met
COc1ccc(NC(=O)c2ccc(NC(=O)COC(=O)CC(NC(=O)c3ccccc3Cl)c3ccccc3)cc2)cc1 (centres unmarked): criterion met
COc1ccc(CN(C(=O)c2nsc(Cl)c2Cl)C(C(=O)NC2CCCC2)c2ccc(C)cc2)cc1 (centres unmarked): criterion met
COc1ccc(NC(=S)N2CCC(NC(=O)c3cccc(F)c3)CC2)cc1: criterion met

Next item in the queue.
Exercise: // inclusive: hERG current change (%, negative = inhibition) at 10uM at least -20%? input: O=S(=O)(NCCCCCNS(=O)(=O)c1ccccc1)c1ccccc1
Key: criterion met

###

# system under test: human ether-à-go-go-related gene (hERG) potassium channel (human, UniProt Q12809);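 note: peak tail current of the secondary pulse compared with the same well before compound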
# test summary: primary screen, population patch clamp on CHO cells stably expressing hERG; higher = less effect of the substance
Hit rate of the full screen: of about 310,000 compounds, about 14,000 (4.5%) showed an effect of 50% or more. The effect is printed as a negative number. The full list was thinned out, with strong results kept by preference.
Decision: hERG current change (%, negative = inhibition) at 10uM compared against -50%; not below it gives true, below it gives false.

Examples with answers:
CSc1ccc(CN(C)C(C)C(=O)NCc2ccccc2)cc1 (stereo not shown): true
CCOc1ccc(CN(C)C(C)C(=O)NCCc2ccc(F)cc2)cc1 (stereo not shown): false

Exercise: // inclusive: hERG current change (%, negative = inhibition) at 10uM at least -50%? input: CCOc1ccc(CCNC(=O)C(O)c2ccccc2)cc1 (stereo not shown)
Key: true

Exercise: Another compound: Cc1nc2sccn2c(=O)c1S(=O)(=O)N1CCN(c2ccc(F)cc2)CC1
Key: false

Exercise: Another compound: CCOc1ccc(C(=O)NC(C(=O)NCCc2ccc(S(N)(=O)=O)cc2)C(C)C)cc1 (stereo not shown)
Key: true

Exercise: Another compound: CCOc1ccc(CN(C)C(C)C(=O)NCc2ccccc2)cc1 (stereo not shown)
Key: false

Exercise: Another compound: CCN1CCN(C(=O)c2cc3sccc3n2CC(=O)c2ccccc2)CC1
Key: true

Exercise: Another compound: COCc1cc(C)nc(OCC(=O)N/N=C/c2ccc(-c3cc([N+](=O)[O-])ccc3Cl)o2)c1C#N
Key: true

Exercise: Another compound: Cc1nc2sccn2c(=O)c1S(=O)(=O)N1CCN(c2ccccc2)CC1
Key: true

Exercise: Another compound: O=C(Cn1c(C(=O)N2CCN(C3CCCC3)CC2)cc2sccc21)c1ccccc1
Key: false

###

# system under test: human ether-à-go-go-related gene (hERG) potassium channel (human, UniProt Q12809);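 note: peak tail current of the secondary pulse compared with the same well before compound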
# test summary: primary screen, population patch clamp on CHO cells stably expressing hERG; higher = less effect of the substance
Screen size: about 310,000 compounds; about 14,000 (4.5%) showed an effect of 50% or more. The effect is printed as a negative number. What follows is part of a selection rich in strong results, with near analogues and random picks from the rest.
Listed here: items and their measured hERG current change (%, negative = inhibition) at 10uM.
Record the value in %, omitting the unit from your answer.

Recorded results for 5 compounds are shown here.
CC(C)C[C@@H](COc1ccccc1)N1CCN(CCc2ccccc2)CCC1=O: -77.5
O=C(CSc1n[nH]c(-c2ccccn2)n1)Nc1ccccc1F: -1.74
NC(N)=Nc1nc(-c2ccccc2)c2cc(F)ccc2n1: -66.2
CCCN1CCC(=O)N([C@H](COc2ccccc2)CC(C)C)CC1: -81.9
NNc1nc(-c2ccccc2)c2cc(Cl)ccc2n1: -11.3

Exercise: Can you look up the measured hERG current change (%, negative = inhibition) at 10uM of CCCN1CCC(=O)N([C@H](CN=[N+]=[N-])CC(C)C)CC1 for me?
Key: 3.11

Exercise: Another compound: Clc1ccc2nnnc(-c3ccccc3)c2c1
Key: -9.98

Exercise: Another compound: COc1ccc(N2CCN(C(=O)Cc3ncc(C(F)(F)F)cc3Cl)CC2)cc1
Key: -51.9

Exercise: Another compound: NC(N)=Nc1nc(-c2ccccc2)c2ccccc2n1
Key: -40.1

Exercise: Another compound: O=C(Cc1ncc(C(F)(F)F)cc1Cl)N1CCN(c2ccccn2)CC1
Key: -17.2

###

Listed here: items and their measured hERG current change (%, negative = inhibition) at 10uM.
# system under test: human ether-à-go-go-related gene (hERG) potassium channel (human);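 note: peak tail current of the secondary pulse compared with the same well before compound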
# test summary: primary screen, population patch clamp on CHO cells stably expressing hERG; higher = less effect of the substance
Hit rate of the full screen: of about 310,000 compounds, about 14,000 (4.5%) showed an effect of 50% or more. Effects have a minus sign here. Many of the other results were omitted from the sample, so strong results are more common in it than they were.
Record the value in %, omitting the unit from your answer.

S=c1[nH]nc(-c2cc(-c3ccsc3)n[nH]2)n1-c1cccc2ccccc12: -12.6
Cc1cn2c(-c3ccncc3)nnc2s1: 7.96
CCC1CCc2sc(C(=O)NCC3CCCO3)cc2C1 (centres unmarked): -12.1
CCC1CCc2sc(C(=O)NCc3ccccn3)cc2C1 (centres unmarked): -3.79

Exercise: Can you look up the measured hERG current change (%, negative = inhibition) at 10uM of CCC1CCc2sc(C(=O)NCC(c3ccc(OC)cc3)N3CCOCC3)cc2C1 (centres unmarked) for me?
Key: -5.82

Exercise: Another compound: COc1ccc(C(CNC(=O)c2cc3c(s2)CCC(C)C3)N2CCCC2)cc1 (centres unmarked)
Key: -57.7

Exercise: Another compound: CCC1CCc2sc(C(=O)N(C)CC(=O)Nc3ccc(OC)cc3)cc2C1 (centres unmarked)
Key: -18.2

Exercise: Another compound: CCC1CCc2sc(C(=O)NCC(c3ccc(OC)cc3)N3CCCC3)cc2C1 (centres unmarked)
Key: -71

Exercise: Another compound: CN(C)C(=O)c1noc2cc([N+](=O)[O-])ccc12
Key: -12

Exercise: Another compound: COCCCNCC#CCOc1ccc(OC)cc1.O=C(O)C(=O)O
Key: 0.922

Exercise: Another compound: COc1ccc(C(CNC(=O)c2cc3c(s2)CCCC3)N2CCOCC2)cc1 (centres unmarked)
Key: -23.5
